- assay_explanation: protein stability index of a GFP-peptide fusion (GPS, HEK-293T) (PSI 1-6); higher = more stable;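 further: 24-mer peptide tiles fused after GFP, lentivirally expressed, FACS-sorted into six equal bins by GFP/DsRed ratio, decoded by Illumina sequencing, PSI is the read-weighted mean bin number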
- assay_conditions: treatment: DMSO; c terminus: a fixed tail appended
value_type: protein stability index

{"columns": ["residue_codes", "test_result"],
 "data": [
  ["ASHCLMNHPDLAKDLTEYLKVRSH [PDS5B]", 3.05],
  ["AVVHEYALAVCLSFFYPVLFVLFM [SOAT1]", 3.29],
  ["ETTGIQIWSEVFTVEKPGGKKVAV [ATL3]", 2.79],
  ["KMAAVSKASGRFGLLQGTSAETSG [SEPHS2]", 3.94],
  ["MPRAPKRQRCMPEEDLQSQSETQG [MAGEA10]", 5.02],
  ["HGQAGQRQDPRPHGPQLPTGIEGN [ZBED2]", 4.91],
  ["VCTKYNLRITSGVVVCQCGLSIPS [RPAIN]", 2.56],
  ["IYTNRYETNEEDKTLQEIYRKYRK [FBXO39]", 2.96],
  ["LWVPQPPPRTIKRTRRRLSRNRDP [PWWP2B]", 3.44],
  ["VAMDTEFPGVVARPIGEFRSNADY [CNOT7]", 3.73],
  ["RFLGEGHHRVQENQMDKARRHPQG [CHGB]", 4.5],
  ["DSKDCILEPLSLPESPGGTTTLEG [ZNF277]", 5.36],
  ["RLKLLKDREVDAATSATSHTRSLN [FBF1]", 4.31],
  ["KEGEGEVGGEAVEVEEVENVQTEF [TRIM55]", 5.72],
  ["NGVLGLSRLLFFLLGFLRIRVRGQ [LPCAT4]", 2.2],
  ["KLFFVDTGSKEKGLTKKRTKVQKK [NOP53]", 3.26],
  ["ESIVPIPSSNEEIRLVDDAFGKIC [INTS4]", 4.05],
  ["YYLRKGKKINSNQLENEQSQENSI [SPANXN3]", 4.47],
  ["MPDYMILQELKKLKNSNYESIQQT [PPTC7]", 2.5],
  ["DEEQQVLLSRLEEEEQDILQRLRE [TRIM39]", 5.27],
  ["MSTIGSFEGFQAVSLKQEGDDQPS [TPRG1]", 5.22],
  ["EEEVFPLAMNYLDRFLAGVPTPKS [CCND2]", 3.35],
  ["GRLLLTLPLLRQTAGKVLAHFYGV [ESRRA]", 2.78],
  ["RELNLPFGGMKSSGIGREGAKDSY [ALDH8A1]", 4.08],
  ["TLVMFQSLGERMNTFVRYLLKRIK [KCNK9]", 3],
  ["EIPIHGNGEARQLPEDDGLEQDLQ [ARFIP2]", 5.04],
  ["PPPPPSYDPDYIQCPYCQRRFNEN [ZC2HC1A]", 5.27],
  ["NLVAGCLQLNARSFMMGQGGEAAH [NEUROD6]", 2.34],
  ["SSCFFIESCGAQVPVEGSRRETSI", 3],
  ["INLEEKEKQIRSFLIEGPLINTIR [PLEKHN1]", 2.5],
  ["NGDGAFLHDNHEQMPTEIEFPESR [ZNF649]", 5.31],
  ["AQPPDYTFPSGSGAHFPQVPGGAV [PI4K2A]", 3.93],
  ["LRMMVENIMNKEAFMNQEITKAFH [RHOBTB1]", 2.28],
  ["ENAGGSPSPEPAGRRAALYVHWPY [RSAD1]", 3],
  ["FLTYVPLLGLKAFLGLFFIVRFLE [FADS1]", 2.56],
  ["PLLPLDMQGNQILVFPSSSSSSSS [ZBTB22]", 3.93],
  ["HFPYDLHLRSQSLTMQDELNAVFH [NEUROD6]", 2.81],
  ["SRSRSRSRSRSRSRSNSRSRSYSP [SRSF1]", 5.52],
  ["WDPHNGDILMEFGHLFPPPTPIFA [WSB1]", 2.38],
  ["SSNRIRHLRTHTGERPYKCSECGE [ZNF263]", 4.28],
  ["MEQFCWPHLRSFCETCVGSWSIQM", 2.82],
  ["GSGGGYGGGMRVCGFGGGAGSVFG [KRT15]", 2.18],
  ["WMIEEKATITSRGSSLSGSLCSLL [LURAP1L]", 2.28],
  ["ASAPTYPSLYSSYHQGCLVNPTGN [NANOGP8]", 3.29],
  ["FETMAIEIEQLLARLTGVNDKMAE [GOSR1]", 3.06],
  ["KKKRPPQPPEESQPPQSQAQVPPA [PLK2]", 5.35],
  ["SVILRRYFLELTQSFIIPLERYVA [DENND6A]", 2.33],
  ["RRERELQHAALGGTATRQNNWPPL [SCAMP3]", 3.54],
  ["DLETHRLPCTSRCPRPCRESAFKL [SCNN1D]", 2.41],
  ["LNRPGPAPLSSRKHVLYVEHRHLN [TCF25]", 3.14],
  ["RNLYAYIQKLTQIETGENVTGMEL [PTPRD]", 2.41],
  ["QMREAFATAFSKLKPESSQQPGQD [ZBED1]", 4.57],
  ["KALNTFIDDLFAFVIKMPVMYRIG [CLPTM1]", 3.02]
]}
